System: A. oris, A. naeslundii, S. mitis and S. oralis
Test: Bacteria adhesion assay, defined inocula (MBEC pegs, saliva pellicle, CFU plating)
Format: cell-based
Settings: dosage 10 mM in model mouth rinse with DMSO, relative CFU with base designated as 100, read-out: Adhesion Δ (difference in relative biofilm abundance between control base and treatment)
Given measured inhibition at 10000 µM, output Condition met if it is greater than or equal to 90% and Condition not met if not.

Q: Form field: inhibition at 10000 µM at least 90%? Entry: CCCCCCCCCCCCCC(=O)O
A: Condition not met

Q: Form field: inhibition at 10000 µM at least 90%? Entry: CC=Cc1ccc(OC)cc1
A: Condition not met

Q: Form field: inhibition at 10000 µM at least 90%? Entry: CCCCCCCCCCC(=O)O
A: Condition met

Q: Form field: inhibition at 10000 µM at least 90%? Entry: C=C(C)[C@@H]1CCC2=CC(=O)C[C@@H](C)[C@]2(C)C1
A: Condition not met

====

Test system: biofilm of defined inocula (12 bacterial strains of Table 1)
Test: Biofilm formation assay, defined inocula (MBEC plates, SYTO 9 fluorescence)
Type: cell-based
Conditions: dosage 10 mM in model mouth rinse with DMSO; defined inocula; relative fluorescence intensity with base designated as 100; read-out: Formation Δ (difference in relative biofilm abundance between control base and treatment)
Given measured inhibition at 10000 µM, output true (1) if it is greater than or equal to 60% and false (0) if not.

Q: Form field: inhibition at 10000 µM at least 60%? Entry: CCCCCCCCCC(=O)O
A: true (1)

Q: Form field: inhibition at 10000 µM at least 60%? Entry: CCCCCCCCCCC(=O)O
A: true (1)

Q: Form field: inhibition at 10000 µM at least 60%? Entry: CC=Cc1ccc(OC)cc1
A: false (0)

Q: Form field: inhibition at 10000 µM at least 60%? Entry: C=C(C)[C@@H]1CCC2=CC(=O)C[C@@H](C)[C@]2(C)C1
A: false (0)

Q: Form field: inhibition at 10000 µM at least 60%? Entry: CCCCCCCCCCCCCC(=O)O
A: true (1)

Q: Form field: inhibition at 10000 µM at least 60%? Entry: CC(C)=CCCC(C)CCO (stereo not drawn)
A: false (0)
